Origin of values: patent US9758492B2

Listing of recorded pIC50 by entry.
# measurement-target: IDO (Homo sapiens, UniProt P14902)
# Sequence (P14902 whole entry): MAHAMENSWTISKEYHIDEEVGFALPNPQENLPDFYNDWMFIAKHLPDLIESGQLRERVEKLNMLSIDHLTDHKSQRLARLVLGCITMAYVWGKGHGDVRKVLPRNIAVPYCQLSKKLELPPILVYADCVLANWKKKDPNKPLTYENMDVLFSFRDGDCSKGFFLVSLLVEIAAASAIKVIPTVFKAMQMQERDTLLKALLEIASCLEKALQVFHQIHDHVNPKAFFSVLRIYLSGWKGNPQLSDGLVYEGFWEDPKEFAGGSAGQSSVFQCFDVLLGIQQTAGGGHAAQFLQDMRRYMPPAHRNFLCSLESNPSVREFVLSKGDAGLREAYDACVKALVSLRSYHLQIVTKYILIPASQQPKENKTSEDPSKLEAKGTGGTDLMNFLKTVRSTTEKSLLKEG
# protocol-description: LLE_IDO_ABS_DR (IDO assay)
In textbook form, pIC50 equals minus log to base ten of the concentration in mol/L.

molecule | measurement-target | pIC50
CC(C)CN(CC(C)C)c1ccc(-c2cc(F)ccc2-c2nnn[nH]2)cc1NC(=O)Nc1ccccc1F | IDO (Homo sapiens, UniProt P14902) | 8.60
CC(C)CN(c1ccc(-c2ccccc2-c2nnn[nH]2)cc1NC(=O)Nc1ccccc1F)C(C)C | IDO (Homo sapiens, UniProt P14902) | 8.29
Cc1ccc(NC(=O)Nc2cc(-c3ccccc3C(=O)O)ccc2N(CCC(F)(F)F)Cc2ccccc2)cc1 | IDO (Homo sapiens, UniProt P14902) | 6.74
CN(c1ccc(-c2ccccc2C(=O)O)cc1NC(=O)Nc1ccccc1)C1CCCCC1 | IDO (Homo sapiens, UniProt P14902) | 6.31

Qu. # get_value(readout= pIC50, system= IDO (Homo sapiens, UniProt P14902)) for CC(C)CN(CC(C)C)c1ccc(-c2ccccc2-c2nnn[nH]2)cc1NC(=O)Nc1ccccn1
Ans. 6.12

Qu. # get_value(readout= pIC50, system= IDO (Homo sapiens, UniProt P14902)) for CC(C)CN(CC(C)C)c1ccc(-c2ccccc2-c2nnn[nH]2)cc1NC(=O)Nc1ccccc1OC(F)F
Ans. 5.62

Qu. # get_value(readout= pIC50, system= IDO (Homo sapiens, UniProt P14902)) for CCC1CCCCN1c1ccc(-c2ccccc2C(=O)O)cc1NC(=O)Nc1ccc(C)cc1 (centres unmarked)
Ans. 5.73

Qu. # get_value(readout= pIC50, system= IDO (Homo sapiens, UniProt P14902)) for Cc1ccc(NC(=O)Nc2cc(-c3cc(F)ccc3C(=O)O)ccc2N(CCC(F)(F)F)CC(C)C)cc1
Ans. 6.96
